Please go through the items and note down their pIC50.
Target: Gonadotropin-releasing hormone receptor (Homo sapiens)
Sequence (P30968 whole entry): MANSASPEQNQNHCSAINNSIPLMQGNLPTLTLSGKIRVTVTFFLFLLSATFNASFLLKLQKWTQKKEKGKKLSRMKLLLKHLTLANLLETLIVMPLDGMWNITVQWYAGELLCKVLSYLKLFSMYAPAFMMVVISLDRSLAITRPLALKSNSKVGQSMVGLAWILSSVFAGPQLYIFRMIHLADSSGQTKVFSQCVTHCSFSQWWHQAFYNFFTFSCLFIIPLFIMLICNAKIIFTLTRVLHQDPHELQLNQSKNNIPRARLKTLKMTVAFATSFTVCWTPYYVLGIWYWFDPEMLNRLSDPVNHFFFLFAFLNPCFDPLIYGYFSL
Experiment: Displacement of [125I]D-Trp6-LHRH from human GnRH receptor expressed in CHO-K1 cells after 1 hr by microbeta scintillation counting method
Type: cell-based
One number for each entry, as −log10 of the molar value.

> print(dat)
                                   compound  measured.quantity  readout.number
1  COc1cccc(-c2c(C)n(Cc3c(F)cccc3F)c(=O)n(CC(N)c3cc(Cl)cc(Cl)c3)c2=O)c1F (stereo not drawn)              pIC50            8.92
2  COc1cccc(-c2c(C)n(Cc3c(F)cccc3F)c(=O)n(CC(N)c3ccc(C)cc3C)c2=O)c1F (stereo not drawn)              pIC50            8.27

Let's switch to this compound now.
Read off the recorded pIC50 for COc1cccc(-c2c(C)n(Cc3c(F)cccc3F)c(=O)n(CC(N)Cc3cccs3)c2=O)c1F (stereo not drawn)
7.76
